Values compiled from ChEMBL document CHEMBL3217539.

# maps each entry to its pIC50
Biological target: Epidermal growth factor receptor (Homo sapiens, UniProt P00533, T790M)
Sequence (P00533 25-1210 T790M limits assumed): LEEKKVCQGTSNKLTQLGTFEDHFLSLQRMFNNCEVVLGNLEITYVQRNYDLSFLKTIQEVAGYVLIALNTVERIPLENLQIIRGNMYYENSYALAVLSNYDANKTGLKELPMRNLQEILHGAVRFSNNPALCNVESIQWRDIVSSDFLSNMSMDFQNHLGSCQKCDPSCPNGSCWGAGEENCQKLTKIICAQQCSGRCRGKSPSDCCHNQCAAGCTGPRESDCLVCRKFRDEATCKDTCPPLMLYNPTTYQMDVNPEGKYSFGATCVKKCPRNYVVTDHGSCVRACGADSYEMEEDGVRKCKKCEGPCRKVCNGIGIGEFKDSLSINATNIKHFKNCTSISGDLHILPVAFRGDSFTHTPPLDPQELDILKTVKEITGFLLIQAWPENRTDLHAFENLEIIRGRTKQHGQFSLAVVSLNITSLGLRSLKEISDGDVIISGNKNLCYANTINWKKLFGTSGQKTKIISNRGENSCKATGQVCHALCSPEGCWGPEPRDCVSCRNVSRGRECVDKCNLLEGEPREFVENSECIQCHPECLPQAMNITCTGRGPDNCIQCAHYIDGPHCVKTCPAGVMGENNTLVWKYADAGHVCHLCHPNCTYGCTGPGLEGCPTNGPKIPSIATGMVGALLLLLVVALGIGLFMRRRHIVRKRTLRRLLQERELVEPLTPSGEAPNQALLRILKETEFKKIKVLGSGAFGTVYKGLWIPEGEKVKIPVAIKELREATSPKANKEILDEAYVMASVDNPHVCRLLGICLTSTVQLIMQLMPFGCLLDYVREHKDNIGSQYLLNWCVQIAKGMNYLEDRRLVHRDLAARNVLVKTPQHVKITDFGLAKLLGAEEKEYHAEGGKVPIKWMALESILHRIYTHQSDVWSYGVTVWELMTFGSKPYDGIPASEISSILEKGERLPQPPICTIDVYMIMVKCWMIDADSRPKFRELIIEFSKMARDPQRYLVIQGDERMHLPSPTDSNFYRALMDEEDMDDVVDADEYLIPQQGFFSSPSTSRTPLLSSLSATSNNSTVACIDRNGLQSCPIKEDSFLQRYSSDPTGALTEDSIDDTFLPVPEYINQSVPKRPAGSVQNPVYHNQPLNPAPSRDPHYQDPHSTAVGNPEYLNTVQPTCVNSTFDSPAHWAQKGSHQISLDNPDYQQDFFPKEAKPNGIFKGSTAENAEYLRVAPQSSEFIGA
Experiment: Inhibition of EGFR kinase T790M mutant (unknown origin) after 1.5 hrs by FRET-based Z'-Lyte assay
pIC50: −log10 of the molar value.
readout: pIC50

>>> print(df.to_string())
                                   molecule                           systemundertest  valuequalifier  valuereported
0  C=CC(=O)Nc1cccc(N2C(=O)C(C)N(C)C(=O)c3cnc(Nc4ccc(N5CCN(C)CC5)cc4OC)nc32)c1 (configuration not stated)  Epidermal growth factor receptor (Homo sapiens, UniProt P00533, T790M)               =           6.91
1  C=CC(=O)Nc1cccc(N2C(=O)CN(Cc3ccccc3)C(=O)c3cnc(Nc4ccc(N5CCN(C)CC5)cc4OC)nc32)c1  Epidermal growth factor receptor (Homo sapiens, UniProt P00533, T790M)               =           7.07
2  C=CC(=O)Nc1cccc(N2C(=O)C3CCCCN3C(=O)c3cnc(Nc4ccc(N5CCN(C)CC5)cc4OC)nc32)c1 (configuration not stated)  Epidermal growth factor receptor (Homo sapiens, UniProt P00533, T790M)               =           6.94
3  C=CC(=O)Nc1cccc(N2C(=O)C(C(C)CC)N(C)C(=O)c3cnc(Nc4ccc(N5CCN(C)CC5)cc4OC)nc32)c1 (configuration not stated)  Epidermal growth factor receptor (Homo sapiens, UniProt P00533, T790M)               =           7.06
4  C=CC(=O)Nc1cccc(N2C(=O)C(c3ccccc3)N(C)C(=O)c3cnc(Nc4ccc(N5CCN(C)CC5)cc4OC)nc32)c1 (configuration not stated)  Epidermal growth factor receptor (Homo sapiens, UniProt P00533, T790M)               =           6.11
5  C=CC(=O)Nc1cccc(N2C(=O)C3CCCN3C(=O)c3cnc(Nc4ccc(N5CCN(C)CC5)cc4OC)nc32)c1 (configuration not stated)  Epidermal growth factor receptor (Homo sapiens, UniProt P00533, T790M)               <           6.00
6  C=CC(=O)Nc1cccc(N2C(=O)CN(c3ccccc3)C(=O)c3cnc(Nc4ccc(N5CCN(C)CC5)cc4OC)nc32)c1  Epidermal growth factor receptor (Homo sapiens, UniProt P00533, T790M)               =           6.66

---

Target: Epidermal growth factor receptor (Homo sapiens, UniProt P00533, T790M)
Assay: Inhibition of EGFR kinase T790M mutant (unknown origin) after 1.5 hrs by FRET-based Z'-Lyte assay
pIC50: −log10 of the molar value.
readout: pIC50

>>> df
                                   compound  valuereported
0  C=CC(=O)Nc1cccc(N2C(=O)CN(C)C(=O)c3cnc(Nc4ccc(N5CCN(C)CC5)cc4OC)nc32)c1           6.96
1  C=CC(=O)Nc1cccc(N2C(=O)C(Cc3ccc(OC)cc3)N(C)C(=O)c3cnc(Nc4ccc(N5CCN(C)CC5)cc4OC)nc32)c1 (stereo not given)           7.05
2  C=CC(=O)Nc1cccc(N2C(=O)C(C(C)C)N(C)C(=O)c3cnc(Nc4ccc(N5CCN(C)CC5)cc4OC)nc32)c1 (stereo not given)           7.36
3  C=CC(=O)Nc1cccc(N2C(=O)C(Cc3ccc(F)cc3)N(C)C(=O)c3cnc(Nc4ccc(N5CCN(C)CC5)cc4OC)nc32)c1 (stereo not given)           7.75
4  C=CC(=O)Nc1cccc(N2C(=O)C(Cc3ccccc3)N(C)C(=O)c3cnc(Nc4ccc(N5CCN(C)CC5)cc4OC)nc32)c1 (stereo not given)           7.78

---

# maps each entry to its IC50
System: NCI-H1975
Assay: cells
Type: functional, cell-based
Conditions: Homo sapiens, NCI-H1975, 72 h
readout: IC50 (nM)

>>> df
                                   molecule  readout  valueunits  valuereported
0  C=CC(=O)Nc1cccc(N2C(=O)C3CCCCN3C(=O)c3cnc(Nc4ccc(N5CCN(C)CC5)cc4OC)nc32)c1 (centres undefined)     IC50          nM            990
1  C=CC(=O)Nc1cccc(N2C(=O)C(Cc3ccc(F)cc3)N(C)C(=O)c3cnc(Nc4ccc(N5CCN(C)CC5)cc4OC)nc32)c1 (centres undefined)     IC50          nM             69
2  C=CC(=O)Nc1cccc(N2C(=O)C(Cc3ccc(Cl)cc3)N(C)C(=O)c3cnc(Nc4ccc(N5CCN(C)CC5)cc4OC)nc32)c1 (centres undefined)     IC50          nM            470
3  C=CC(=O)Nc1cccc(N2C(=O)C(c3ccccc3)N(C)C(=O)c3cnc(Nc4ccc(N5CCN(C)CC5)cc4OC)nc32)c1 (centres undefined)     IC50          nM           5900
